Test: Tacrolimus pharmacokinetics stratified by CYP3A5 metabolic composite and ABCB1 3435 genotype
Assay type: in vivo, human
Details: human, whole blood, oral, 5.67 mg; ABCB1 3435 CC, CYP3A5 Extensive (N 6)
Parameter Measured: AUC
Hi, when you answer, please include the unit after the number. Thanks!

Note to self: AUC recorded for C=CC[C@@H]1/C=C(\C)C[C@H](C)C[C@H](OC)[C@H]2O[C@@](O)(C(=O)C(=O)N3CCCC[C@H]3C(=O)O[C@H](/C(C)=C/[C@@H]3CC[C@@H](O)[C@H](OC)C3)[C@H](C)[C@@H](O)CC1=O)[C@H](C)C[C@@H]2OC was 122 ng·h/mL
